Data origin: patent EP1247803A2

- tested.system: EGFR (Homo sapiens, UniProt P00533)
- Construct: Add 7 ug A431 cell lysate per well (EGFR source); endogenous in cells; host or cells: A431
- Sequence (P00533 25-1210): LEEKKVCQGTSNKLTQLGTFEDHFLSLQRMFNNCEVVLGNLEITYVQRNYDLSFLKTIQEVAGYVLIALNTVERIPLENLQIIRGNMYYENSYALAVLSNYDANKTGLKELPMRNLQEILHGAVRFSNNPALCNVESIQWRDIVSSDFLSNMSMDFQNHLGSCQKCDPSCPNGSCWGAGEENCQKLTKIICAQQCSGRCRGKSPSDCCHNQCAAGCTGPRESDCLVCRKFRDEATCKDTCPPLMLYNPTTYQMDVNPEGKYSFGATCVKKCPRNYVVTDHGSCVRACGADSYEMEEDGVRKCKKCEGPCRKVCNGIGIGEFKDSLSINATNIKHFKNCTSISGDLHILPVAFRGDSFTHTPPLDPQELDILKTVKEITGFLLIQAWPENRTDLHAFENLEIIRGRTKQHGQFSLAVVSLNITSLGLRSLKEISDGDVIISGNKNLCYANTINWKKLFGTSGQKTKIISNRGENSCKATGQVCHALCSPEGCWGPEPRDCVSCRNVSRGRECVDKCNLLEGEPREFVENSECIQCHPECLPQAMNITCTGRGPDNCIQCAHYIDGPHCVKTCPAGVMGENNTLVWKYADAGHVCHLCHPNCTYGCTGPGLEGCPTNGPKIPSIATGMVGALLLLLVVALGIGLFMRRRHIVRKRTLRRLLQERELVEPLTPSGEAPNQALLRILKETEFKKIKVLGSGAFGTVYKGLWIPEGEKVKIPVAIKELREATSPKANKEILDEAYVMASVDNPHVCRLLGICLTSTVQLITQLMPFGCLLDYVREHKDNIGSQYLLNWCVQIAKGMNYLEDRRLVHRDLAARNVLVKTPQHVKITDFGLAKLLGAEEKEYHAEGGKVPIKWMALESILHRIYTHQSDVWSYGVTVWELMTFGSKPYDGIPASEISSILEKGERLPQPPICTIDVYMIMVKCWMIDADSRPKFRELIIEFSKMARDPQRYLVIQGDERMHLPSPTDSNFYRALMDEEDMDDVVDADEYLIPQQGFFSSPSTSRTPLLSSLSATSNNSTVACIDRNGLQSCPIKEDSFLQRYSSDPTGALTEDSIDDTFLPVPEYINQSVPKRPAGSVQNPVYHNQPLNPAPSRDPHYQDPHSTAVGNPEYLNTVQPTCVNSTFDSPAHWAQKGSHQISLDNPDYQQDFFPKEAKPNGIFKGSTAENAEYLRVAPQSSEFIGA
- test.description: EGFR ELISA assay (in vitro kinase activity, EGFR captured from A431 cell lysate)
- Assay type: biochemical
- Parameters: concentration or dose not given beside the values
Would you kindly list Biochem EGFR %Inhibition for each of these compounds?
Please respond with the number in % and leave the unit unwritten.

Give its Biochem EGFR %Inhibition value. Item: COc1ccc2[nH]cc(C=C3C(=O)Nc4ccc(I)cc43)c2c1
15.0

Give its Biochem EGFR %Inhibition value. Item: COc1cc(C=C2C(=O)Nc3ccc(CCCl)cc32)cc2c1OCO2
16.1

Give its Biochem EGFR %Inhibition value. Item: O=C1Nc2ccc(S(=O)(=O)N3CCOCC3)cc2C1=Cc1ccccc1
-24.3

Give its Biochem EGFR %Inhibition value. Item: O=C1Nc2ccc(CCCl)cc2C1=Cc1c(F)cccc1C(F)(F)F
-8.0

Give its Biochem EGFR %Inhibition value. Item: O=C1Nc2c(Br)cc(Br)cc2C1=Cc1ccccc1Sc1ccc(Cl)cc1
-3.0

Give its Biochem EGFR %Inhibition value. Item: CC(C)(C)c1cc(C=C2C(=O)Nc3ccc(CCCl)cc32)cc(Cl)c1OCc1ccccc1
-38.2

Give its Biochem EGFR %Inhibition value. Item: COc1c(C(C)C)cc(C=C2C(=O)Nc3ccc(CCCl)cc32)cc1C(C)C
-20.0

Give its Biochem EGFR %Inhibition value. Item: CCc1c(C)[nH]c(C=C2C(=O)Nc3ccc(S(=O)(=O)N4CCOCC4)cc32)c1C
35.0

Give its Biochem EGFR %Inhibition value. Item: CC(C)(C)c1cc(C=C2C(=O)Nc3ccc(I)cc32)cc(I)c1OCc1ccccc1
31.6

Give its Biochem EGFR %Inhibition value. Item: O=C1Nc2c(Br)cc(Br)cc2C1=Cc1cc(O)ccc1O
89.0

Give its Biochem EGFR %Inhibition value. Item: O=C1Nc2ccc(CCCl)cc2C1=Cc1cc(Cl)ccc1O
62.9

Give its Biochem EGFR %Inhibition value. Item: CNS(=O)(=O)c1ccc2c(c1)C(=Cc1cc(I)c(OCc3ccccc3)c(C(C)(C)C)c1)C(=O)N2
12.5

Give its Biochem EGFR %Inhibition value. Item: CNS(=O)(=O)c1ccc2c(c1)C(=Cc1cc(C)c(O)c(C)c1)C(=O)N2
-2.8

Give its Biochem EGFR %Inhibition value. Item: Cc1c(Br)ccc2c1C(=Cc1cc3c4c(c1O)CCCN4CCC3)C(=O)N2
-0.8

Give its Biochem EGFR %Inhibition value. Item: O=C1Nc2ccc(S(=O)(=O)Nc3ccc(C(F)(F)F)cc3)cc2C1=Cc1cccc(F)c1O
24.2

Give its Biochem EGFR %Inhibition value. Item: O=C1Nc2ccc(I)cc2C1=Cc1ccccc1O
58.4

Give its Biochem EGFR %Inhibition value. Item: CCOc1ccccc1C=C1C(=O)Nc2ccc(S(=O)(=O)Nc3ccc(C(F)(F)F)cc3)cc21
17.2

Give its Biochem EGFR %Inhibition value. Item: CNS(=O)(=O)c1ccc2c(c1)C(=Cc1ccc(C(F)(F)F)cc1)C(=O)N2
-10.1

###

- tested.system: FLK-1 receptor (Mus musculus, UniProt P35918)
- Construct: expressed in transfected cells; host or cells: NIH3T3 C7#3
- Sequence (P35918 20-1345): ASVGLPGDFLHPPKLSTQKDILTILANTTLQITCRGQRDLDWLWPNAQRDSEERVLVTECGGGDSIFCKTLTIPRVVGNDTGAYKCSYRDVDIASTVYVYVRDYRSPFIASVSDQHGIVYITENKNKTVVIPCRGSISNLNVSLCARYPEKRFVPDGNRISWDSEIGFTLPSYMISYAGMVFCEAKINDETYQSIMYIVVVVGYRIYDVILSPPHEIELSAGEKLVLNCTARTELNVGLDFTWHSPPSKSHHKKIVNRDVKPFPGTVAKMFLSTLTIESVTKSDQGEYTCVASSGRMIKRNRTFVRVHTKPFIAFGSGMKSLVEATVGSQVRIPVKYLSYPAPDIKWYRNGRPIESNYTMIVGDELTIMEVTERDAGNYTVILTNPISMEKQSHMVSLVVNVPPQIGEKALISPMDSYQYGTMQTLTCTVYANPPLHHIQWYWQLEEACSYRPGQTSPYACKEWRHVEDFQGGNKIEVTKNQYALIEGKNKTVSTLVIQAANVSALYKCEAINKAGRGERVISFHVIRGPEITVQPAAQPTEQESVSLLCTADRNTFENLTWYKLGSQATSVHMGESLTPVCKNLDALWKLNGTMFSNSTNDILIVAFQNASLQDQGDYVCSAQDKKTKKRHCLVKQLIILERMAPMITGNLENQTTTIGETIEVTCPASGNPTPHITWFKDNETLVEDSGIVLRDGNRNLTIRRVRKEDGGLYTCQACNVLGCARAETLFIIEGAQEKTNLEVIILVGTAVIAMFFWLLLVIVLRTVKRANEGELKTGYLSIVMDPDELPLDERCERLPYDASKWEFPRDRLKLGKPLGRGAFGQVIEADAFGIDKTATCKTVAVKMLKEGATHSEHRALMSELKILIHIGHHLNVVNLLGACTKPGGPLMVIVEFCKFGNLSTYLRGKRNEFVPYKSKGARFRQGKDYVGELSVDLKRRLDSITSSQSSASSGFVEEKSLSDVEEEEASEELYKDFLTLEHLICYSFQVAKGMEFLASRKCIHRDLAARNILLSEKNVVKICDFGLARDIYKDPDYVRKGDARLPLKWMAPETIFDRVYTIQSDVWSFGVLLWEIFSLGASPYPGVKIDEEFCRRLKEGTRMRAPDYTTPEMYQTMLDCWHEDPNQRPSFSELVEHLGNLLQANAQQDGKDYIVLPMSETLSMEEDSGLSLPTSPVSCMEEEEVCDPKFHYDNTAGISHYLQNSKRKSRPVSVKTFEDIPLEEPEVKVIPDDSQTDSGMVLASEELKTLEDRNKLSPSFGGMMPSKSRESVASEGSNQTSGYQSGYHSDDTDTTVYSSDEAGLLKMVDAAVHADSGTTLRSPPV
- test.description: FLK-1 ELISA (kinase activity of the FLK-1 receptor in FLK-1/NIH3T3 cells, VEGF stimulated)
- Format: cell-based
Would you kindly list Fik Kinase %Inhibition for each of these compounds?
Please respond with the number in % and leave the unit unwritten.

Give its Fik Kinase %Inhibition value. Item: Cc1cc(O)cc(O)c1C=C1C(=O)Nc2ccc(I)cc21 [10720/B08]
3.6

Give its Fik Kinase %Inhibition value. Item: CC(C)c1cc(C=C2C(=O)Nc3c(Br)cc(Br)cc32)cc(C(C)C)c1O [10724/A06]
-3.7

Give its Fik Kinase %Inhibition value. Item: CC(C)(C)c1cc(C=C2C(=O)Nc3ccc(S(=O)(=O)N4CCOCC4)cc32)cc(I)c1OCc1ccccc1 [10733/F02]
-15.7

Give its Fik Kinase %Inhibition value. Item: O=C1Nc2c(Br)cc(Br)cc2C1=Cc1ccc(Br)cc1 [10717/A08]
-5.2

Give its Fik Kinase %Inhibition value. Item: CNS(=O)(=O)c1ccc2c(c1)C(=Cc1ccc(Cl)s1)C(=O)N2 [10721/D07]
6.4

Give its Fik Kinase %Inhibition value. Item: COc1c(C(C)C)cc(C=C2C(=O)Nc3ccc(S(=O)(=O)N4CCOCC4)cc32)cc1C(C)C [10732/F03]
31.9

Give its Fik Kinase %Inhibition value. Item: Cc1cc(C)c(C=C2C(=O)Nc3ccc(S(=O)(=O)N4CCOCC4)cc32)[nH]1 [10721/F08]
-6.4

Give its Fik Kinase %Inhibition value. Item: O=C1Nc2ccc(S(=O)(=O)Nc3ccc(C(F)(F)F)cc3)cc2C1=Cc1ccc(Br)o1 [10726/E05]
8.1

###

Would you kindly list PDGF Kinase %Inhibition for each of these compounds?
- tested.system: PDGF-R (Homo sapiens)
- Sequence (P09619 33-1106, species assumed): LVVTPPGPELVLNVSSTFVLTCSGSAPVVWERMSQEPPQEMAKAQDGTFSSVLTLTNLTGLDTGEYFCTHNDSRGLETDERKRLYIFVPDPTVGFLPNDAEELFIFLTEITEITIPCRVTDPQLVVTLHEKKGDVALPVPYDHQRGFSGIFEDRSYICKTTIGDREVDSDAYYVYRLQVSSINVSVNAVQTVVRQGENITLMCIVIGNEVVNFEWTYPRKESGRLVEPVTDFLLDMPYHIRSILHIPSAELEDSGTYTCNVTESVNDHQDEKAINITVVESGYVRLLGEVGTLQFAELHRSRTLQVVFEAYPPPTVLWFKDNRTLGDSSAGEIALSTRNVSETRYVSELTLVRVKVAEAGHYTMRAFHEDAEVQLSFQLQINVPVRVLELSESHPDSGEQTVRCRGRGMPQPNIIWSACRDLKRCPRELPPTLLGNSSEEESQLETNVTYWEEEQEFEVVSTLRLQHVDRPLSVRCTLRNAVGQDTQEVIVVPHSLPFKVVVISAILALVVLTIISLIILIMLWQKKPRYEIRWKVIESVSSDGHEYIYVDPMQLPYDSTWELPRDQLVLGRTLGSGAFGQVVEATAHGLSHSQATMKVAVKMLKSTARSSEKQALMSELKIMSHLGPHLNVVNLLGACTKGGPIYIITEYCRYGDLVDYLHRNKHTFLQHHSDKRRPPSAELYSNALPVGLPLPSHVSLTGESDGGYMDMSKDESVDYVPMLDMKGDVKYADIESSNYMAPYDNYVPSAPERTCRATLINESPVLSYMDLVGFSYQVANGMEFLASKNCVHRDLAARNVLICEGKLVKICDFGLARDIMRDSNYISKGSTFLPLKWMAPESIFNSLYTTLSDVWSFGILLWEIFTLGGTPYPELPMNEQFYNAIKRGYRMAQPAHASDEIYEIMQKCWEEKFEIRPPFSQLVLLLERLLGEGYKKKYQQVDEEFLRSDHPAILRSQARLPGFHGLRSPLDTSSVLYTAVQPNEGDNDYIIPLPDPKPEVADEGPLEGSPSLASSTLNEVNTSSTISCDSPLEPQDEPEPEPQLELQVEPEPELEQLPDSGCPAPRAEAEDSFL
- test.description: PDGF-R ELISA
- Format: cell-based
Please answer using a numeric value trailed by its unit.

Give its PDGF Kinase %Inhibition value. Item: O=C1Nc2ccc(CCCl)cc2C1=Cc1csc([N+](=O)[O-])c1 [10722/G09]
0.9%

Give its PDGF Kinase %Inhibition value. Item: CCc1cc(CC)c(C=C2C(=O)Nc3ccc(I)cc32)[nH]1 [10727/B03]
-7.4%

Give its PDGF Kinase %Inhibition value. Item: O=C1Nc2ccc(S(=O)(=O)Nc3ccc(C(F)(F)F)cc3)cc2C1=Cc1ccccc1Br [10723/E07]
14.5%

Give its PDGF Kinase %Inhibition value. Item: CC(C)(C)c1cc(C=C2C(=O)Nc3ccc(S(=O)(=O)N4CCOCC4)cc32)ccc1OCc1ccccc1 [10732/F06]
0.2%

Give its PDGF Kinase %Inhibition value. Item: Cc1c(Br)cc(Br)c2c1C(=Cc1c[nH]cn1)C(=O)N2 [10725/A11]
18.9%

Give its PDGF Kinase %Inhibition value. Item: COc1ccc2[nH]cc(C=C3C(=O)Nc4ccc(I)cc43)c2c1 [10731/B09]
0.3%

Give its PDGF Kinase %Inhibition value. Item: Cc1cc(C=C2C(=O)Nc3ccc(CCCl)cc32)[nH]n1 [10725/G05]
7.4%

Give its PDGF Kinase %Inhibition value. Item: O=CN1CCN(c2ccc(C=C3C(=O)Nc4ccc(CCCl)cc43)cc2)CC1 [10725/G07]
23.7%

Give its PDGF Kinase %Inhibition value. Item: CNS(=O)(=O)c1ccc2c(c1)C(=Cc1ccc(OC)c(OC)c1OC)C(=O)N2 [10730/D02]
24.3%

Give its PDGF Kinase %Inhibition value. Item: CC(=O)n1cc(C=C2C(=O)Nc3ccc(S(=O)(=O)Nc4ccc(C(F)(F)F)cc4)cc32)c2ccccc21 [10730/E05]
28.7%

Give its PDGF Kinase %Inhibition value. Item: CNS(=O)(=O)c1ccc2c(c1)C(=Cc1cc(O)c3c(c1O)CCCC3)C(=O)N2 [10726/D07]
-81.0%

Give its PDGF Kinase %Inhibition value. Item: O=C1Nc2ccc(I)cc2C1=Cc1coc2ccc(Cl)cc2c1=O [10730/B06]
7.6%

Give its PDGF Kinase %Inhibition value. Item: O=C1Nc2ccc(I)cc2C1=Cc1coc2c(Br)cc(Br)cc2c1=O [10730/B09]
15.1%

Give its PDGF Kinase %Inhibition value. Item: O=C1Nc2ccc(S(=O)(=O)N3CCOCC3)cc2C1=Cc1ccc([N+](=O)[O-])cc1 [10734/F06]
-21.4%

Give its PDGF Kinase %Inhibition value. Item: COc1ccc(C=C2C(=O)Nc3ccc(I)cc32)cc1 [10726/B11]
23.3%

Give its PDGF Kinase %Inhibition value. Item: O=C1Nc2ccc(I)cc2C1=Cc1ccc(O)c(O)c1O [10723/B02]
29.0%

Give its PDGF Kinase %Inhibition value. Item: Cc1cc(C=C2C(=O)Nc3ccc(Br)c(C)c32)cc(C(C)(C)C)c1O [10726/C04]
36.6%

Give its PDGF Kinase %Inhibition value. Item: O=C1Nc2ccc(S(=O)(=O)Nc3ccc(C(F)(F)F)cc3)cc2C1=Cc1ccc([N+](=O)[O-])cc1 [10734/E06]
13.5%

Give its PDGF Kinase %Inhibition value. Item: CNS(=O)(=O)c1ccc2c(c1)C(=Cc1coc3ccc(C(C)C)cc3c1=O)C(=O)N2 [10731/D05]
46.0%

Give its PDGF Kinase %Inhibition value. Item: CNS(=O)(=O)c1ccc2c(c1)C(=Cc1cc3c(cc1Cl)OCO3)C(=O)N2 [10727/D06]
10.8%

Give its PDGF Kinase %Inhibition value. Item: CNS(=O)(=O)c1ccc2c(c1)C(=Cc1ccc(OC)cc1O)C(=O)N2 [10723/D09]
21.4%

Give its PDGF Kinase %Inhibition value. Item: CNS(=O)(=O)c1ccc2c(c1)C(=Cc1ccc(F)cc1F)C(=O)N2 [10722/D06]
8.9%

Give its PDGF Kinase %Inhibition value. Item: O=C1Nc2ccc(CCCl)cc2C1=Cc1cc(Cl)cc(Cl)c1O [10734/G03]
-3.8%

Give its PDGF Kinase %Inhibition value. Item: CC(C)(C)c1cc(C=C2C(=O)Nc3ccc(S(=O)(=O)N4CCOCC4)cc32)cc(C(C)(C)C)c1OCc1ccccc1 [10733/F05]
-25.1%

Give its PDGF Kinase %Inhibition value. Item: O=C1Nc2ccc(CCCl)cc2C1=Cc1ccc([N+](=O)[O-])c(O)c1 [10724/G04]
-12.4%

Give its PDGF Kinase %Inhibition value. Item: Cc1c(Br)ccc2c1C(=CC1C=CCCC1)C(=O)N2 (centres unmarked) [10729/C11]
-17.4%

Give its PDGF Kinase %Inhibition value. Item: O=C1Nc2ccc(CCCl)cc2C1=Cc1ccc(N2CCCC2)cc1 [10729/G10]
-13.2%

Give its PDGF Kinase %Inhibition value. Item: CCOc1cccc(C=C2C(=O)Nc3ccc(Br)c(C)c32)c1O [10734/C02]
36.0%

Give its PDGF Kinase %Inhibition value. Item: O=C1Nc2c(Br)cc(Br)cc2C1=Cc1ccc(N2CCOCC2)cc1 [10725/A08]
14.1%

Give its PDGF Kinase %Inhibition value. Item: CNS(=O)(=O)c1ccc2c(c1)C(=Cc1cc(Br)cc(OC)c1O)C(=O)N2 [10733/D08]
42.3%

Give its PDGF Kinase %Inhibition value. Item: COc1c(O)ccc(C=C2C(=O)Nc3ccc(S(=O)(=O)N4CCOCC4)cc32)c1[N+](=O)[O-] [10733/F11]
-17.8%

Give its PDGF Kinase %Inhibition value. Item: COc1c(I)cc(C=C2C(=O)Nc3ccc(Br)c(C)c32)cc1C(C)(C)C [10732/C11]
16.4%

Give its PDGF Kinase %Inhibition value. Item: CC(C)(C)c1ccc(C=C2C(=O)Nc3c(Br)cc(Br)cc32)cc1 [10734/A10]
26.3%

Give its PDGF Kinase %Inhibition value. Item: O=C1Nc2ccc(S(=O)(=O)N3CCOCC3)cc2C1=CC(c1cccs1)C(F)(F)F (centres unmarked) [10732/F02]
-9.4%

Give its PDGF Kinase %Inhibition value. Item: O=C1Nc2ccc(S(=O)(=O)N3CCOCC3)cc2C1=Cc1ccc(O)c(O)c1O [10723/F02]
1.3%
